Tested on: CAKI-1 renal
Test: NCI-60 one-dose screen, 48 h
Conditions: 10 µM unless noted
This is part of a sample that, as a whole, favours compounds with a hit. Of some 83,000 tested, about 20% had one in any assay. Activity calls are given as the source filed them. Rule for the calls: active = growth percent below 10; inactive = the rest.
Respond only with the outcome that fits, drawn from Y (active), N (inactive)

Short answer needed: outcome of this test for `COc1cc2c3c(n(CCCN4CCC[C@@H]4CO)c(=O)c2cc1OC)-c1cc2c(cc1C3=O)OCO2` ?
Y

Short answer needed: outcome of this test for `CCOC(=O)COc1c(OC)c(OC)cc2oc(-c3cccc(C(=O)Nc4ccc(Cl)cc4)c3)cc(=O)c12` ?
N

Short answer needed: outcome of this test for COc1cc(C2CC(c3cc(OC)c(OC)c(OC)c3)=NN2C(C)=O)ccc1OCc1ccc(F)cc1 (stereo not given) ?
N

Short answer needed: outcome of this test for `COc1ccc(C(=O)/C=C/c2cc3c(cc2Br)OCO3)cc1S(N)(=O)=O` ?
Y

Short answer needed: outcome of this test for `COc1ccc2c(c1)c(-c1cc3nc(-c4cn(C)c5ncc(Br)cc45)cc(N)n3n1)cn2C` ?
Y
